Target: human GLP-1 receptor (human, UniProt P43220)
Test: cell-based or functional assay
Where no end group is shown, it is not given here. [ ]: non-standard residue; d: D form. Aib = CC(C)(N)C(=O)O
Each record is given class 1 if its reported CRE luciferase EC50, 0% HSA is strictly below 0.2 nM. Records at or above 0.2 nM are given class 0.

Determine whether this binder shows CRE luciferase EC50, 0% HSA lower than 0.2 nM (ties excluded): HADGTLTSDISSYLEGEAVKEFIAWLVEK[Aib]KEFL-NH2 [[Asp9,Leu12,Ile16,Glu23,Val25,Glu34,Lys35,Aib36,Lys37]-GLP-1-(7-37)-peptidyl-Glu-Phe-Leu amide]
class 0

hey, is CRE luciferase EC50, 0% HSA for HAEGTFTSDVSSYLEEEAVKEFIAWLVEKVKEFL-NH2 [[Glu22,Glu23,Val25,Glu34,Lys35,Val36,Lys37]-GLP-1-(7-37)-peptidyl-Glu-Phe-Leu amide] lower than 0.2 nM or not?
class 0

is_below(CRE luciferase EC50, 0% HSA, 0.2 nM) for HGEGTFTSDVSSYLEGEAVKEFIAWLVEKVKEHL-NH2 [[Gly8,Glu23,Val25,Glu34,Lys35,Val36,Lys37]-GLP-1-(7-37)-peptidyl-Glu-His-Leu amide] ?
class 0

In the record for HAEGTFTSDVSSYLEGQAAKEFIAWLVEKVKEFLEK [[Glu34,Lys35,Val36,Lys37]-GLP-1-(7-37)-peptidyl-Glu-Phe-Leu-Glu-Lys] , is CRE luciferase EC50, 0% HSA less than 0.2 nM?
class 1

Problem: For the binder HAEGTFTSDVSSYLEGQAAKEFIAWLVEHVKEFL-NH2 [[Glu34,His35,Val36,Lys37]-GLP-1-(7-37)-peptidyl-Glu-Phe-Leu amide] , is CRE luciferase EC50, 0% HSA under 0.2 nM?
class 1

I'd appreciate it if you could check whether HAEGTFTNDMTNYLEGEAVKEFIAWLVEKGKEFL-NH2 has CRE luciferase EC50, 0% HSA smaller than 0.2 nM.
class 1

Please check: CRE luciferase EC50, 0% HSA for HAEGTFTSDVSSYLEGEAVKEFIAWLVEKVKEFLEK [[Glu23,Val25,Glu34,Lys35,Val36,Lys37]-GLP-1-(7-37)-peptidyl-Glu-Phe-Leu-Glu-Lys] , strictly under 0.2 nM or not?
class 1

Field: below-cutoff. Rule: recorded CRE luciferase EC50, 0% HSA strictly less than 0.2 nM. Subject: HAEGTFTSDVSSYLEGEAVREFIAWLVHRVREFLEK [[Glu23,Val25,Arg26,His34,Arg35,Val36,Arg37]-GLP-1-(7-37)-peptidyl-Glu-Phe-Leu-Glu-Lys]
class 1

Just wondering, is CRE luciferase EC50, 0% HSA of HGEGTFTSDVSSYLEEEAVKEFIAWLVEKVKEFL-NH2 [[Gly8,Glu22,Glu23,Val25,Glu34,Lys35,Val36,Lys37]-GLP-1-(7-37)-peptidyl-Glu-Phe-Leu amide] below 0.2 nM?
class 0

Values were extracted from patent US20150344540A1.
